Test system: OVCAR-8 ovarian
test.protocol: NCI tumour cell line growth inhibition, 48 h
Quick reference: TGI of the listed items.

molecule: O=S(=O)(O)n1ccnc1 (tested in a mixture with another compound)
system.name: OVCAR-8 ovarian
val: > 100 µM

Data request: Would you kindly share the measured TGI for COc1cc(/C=C2\NC(=O)C3Cc4c(OC)c(C)c(OC)c(OC)c4C2N3C)c(OC)c(C)c1OC (configuration not stated) ?
Data returned: > 100 µM

Data request: Then what about the molecule Cc1[nH]c2ccccc2c1C1=NO/C(=N\O)C(c2c(C)[nH]c3ccccc23)C1 (configuration not stated) ?
Data returned: > 100 µM

Data request: Then what about the molecule CC(=O)OC1=C2CC[C@@H]3C(CC[C@@]4(C)C3CC[C@@H]4OC(C)=O)[C@@]2(C)CC(C#N)C1=O (some centres not stated) ?
Data returned: > 100 µM

Data request: Then what about the molecule O=C1CCC2(CC1CCS(=O)c1ccccc1)OCCO2 (configuration not stated) ?
Data returned: > 100 µM

Data request: Then what about the molecule CS(=O)(=O)NNS(=O)(=O)c1ccc(F)cc1 ?
Data returned: > 100 µM
